Experiment: Toxicity in tadpole assessed as lethality at 10 ppm measured after 48 hrs
Format: organism-based
Conditions: anura, in vivo
QUANTITY: mortality at 48 h, 10 ppm (%)
API: value field is a number in %; no unit string.

Ask: Record request: mortality at 48 h, 10 ppm value, item "COc1cc(-n2cnc3ccc(Cl)cc3c2=O)cc(OC)c1OC"
Result: 10

----------
Tested on: Oncomelania hupensis
Test: Molluscicidal activity against Oncomelania hupensis measured after 24 hrs
Type: functional
LC90 for assorted molecules
Field: numeric (ppm). Do not append units.

Some solved entries appear below for comparison.
1. Cc1ccc(-n2cnc3ccc([N+](=O)[O-])cc3c2=O)cc1    7.58
2. COc1cc([N+](=O)[O-])ccc1-n1cnc2c(Cl)cc(Cl)cc2c1=O    7.03
3. Cc1ccc(-n2cnc3ccc(Cl)cc3c2=O)c(C)c1    5.75
4. Cc1ccc(-n2cnc3c(Cl)cc(Cl)cc3c2=O)cc1    6.21
5. COc1ccc(-n2cnc3ccc(Cl)cc3c2=O)c(OC)c1    4.97
6. O=c1c2cc(Cl)cc(Cl)c2ncn1-c1ccccc1    8.71
7. COc1cc(-n2cnc3c(Cl)cc(Cl)cc3c2=O)cc(OC)c1OC    12.95
8. COc1cc(-n2cnc3ccc(Cl)cc3c2=O)cc(OC)c1OC    3.55

Ask: # query: LC90 of entry "COc1ccc(-n2cnc3ccc(Cl)cc3c2=O)cc1"
Result: 5.01
